Test system: Aβ production in 293 751 SWE and CHO 751 SWE cells (transfected with APP-751 Swedish mutation)
Experiment: Aβ production inhibition activity in cells (Aβ ELISA of conditioned media, normalized for cytotoxicity by MTT)
Type: cell-based
Conditions: 2 h pretreatment + 2 h incubation
# Lookup of reported pIC50 keyed by entry
Just the number, please; pIC50 means minus log10 of the concentration in mol/L.

// solved cases for pIC50 follow
Compound	Value Measured
CSc1ccc(NC(=O)Nc2ccc(Cl)c(Cl)c2)cc1 [Compound 149]	4.86
CCCc1cc(C(C)(C)C)ccc1Oc1ccc(NC(=S)NCc2ccccc2)cc1 [Compound 197]	5.34
CC(C)(C)c1ccc(Oc2ccc(NC(=S)NCc3ccc(Cl)c(Cl)c3)cc2)cc1 [Compound 133]	5.19

Alright, here's another compound for you.
Prompt: Which pIC50 value belongs to CCCc1c(NC(=S)Nc2cccc(C(F)(F)F)c2)ccc(C(=O)c2ccccc2)c1O [Compound 201] ?
Response: 4.70

###

Tested on: Aβ production in 293 751 SWE and CHO 751 SWE cells (transfected with APP-751 Swedish mutation)
Test: Aβ production inhibition activity in cells (Aβ ELISA of conditioned media, normalized for cytotoxicity by MTT)
Assay type: cell-based
Settings: 2 h pretreatment + 2 h incubation
pIC50: −log10 of the molar value.
Returns rule met if the recorded pIC50 is greater than or equal to 5, and rule not met otherwise.

Please review the entries below; each comes with its answer.
Compound	Discrete Label
CC(C)(C)c1ccc([S+]([O-])c2cccc(CN(O)C(=S)NCc3ccccc3)c2)cc1 (stereo not drawn)	rule not met
S=C(Nc1ccc(Cl)c(Cl)c1)Nc1ccc(Cl)c(Cl)c1	rule met
CC(C)(C)c1ccc(Oc2ccc(NC(=S)NCc3ccc(F)c(F)c3)cc2)cc1	rule met
CC(C)(C)c1cccc(Oc2cccc(N(O)C(=S)Nc3ccc(Cl)c(C(F)(F)F)c3)c2)c1	rule met
O=C(Nc1ccc(Cl)c(Cl)c1)c1nccs1	rule not met

Prompt: Could you tell me if the measured pIC50 of CC(c1cccc(Oc2ccc(C(C)(C)C)cc2)c1)N(O)C(=S)NCc1cccc(F)c1 (stereo not drawn) reaches 5 or more?
Response: rule not met

Prompt: Now try Cc1cc2nc(NC(=O)Nc3ccc(Cl)c(Cl)c3)[nH]c2cc1C .
Response: rule not met

Prompt: Lookup CCCCCCSc1nnc(NC(=O)Nc2ccc(Cl)c(Cl)c2)s1
Response: rule met

Prompt: Repeat with CC(C)(C)c1ccc(Oc2ccc(NC(=S)NCc3cccc(C(F)(F)F)c3)cc2)cc1
Response: rule met

###

Test system: Aβ production in 293 751 SWE and CHO 751 SWE cells (transfected with APP-751 Swedish mutation)
Assay: Aβ production inhibition activity in cells (Aβ ELISA of conditioned media, normalized for cytotoxicity by MTT)
Assay type: cell-based
Conditions: 10 μg/ml, % of drug-free control, normalized to MTT
Entries and their inhibition at 10 µg/mL values follow.
Form entry: value (%) — number only.

Worked examples follow.
Compound	Recorded Metric	Units Of Measure	Value Measured
CC(c1cccc(Oc2ccc(C(C)(C)C)cc2)c1)N(O)C(=O)NCc1ccccc1 (stereo not drawn) [Compound 46]	inhibition at 10 µg/mL	%	68
CCC(c1cccc(Oc2ccc(C(C)(C)C)cc2)c1)N(O)C(=S)Nc1cccc(C(F)(F)F)c1Cl (stereo not drawn) [Compound 22]	inhibition at 10 µg/mL	%	10

Prompt: Any idea what its inhibition at 10 µg/mL is? The compound is CC(c1cccc(Oc2ccc(C(C)(C)C)cc2)c1)N(C(=S)NCc1ccccc1)N(C)C (stereo not drawn) [Compound 38]
Response: 32
